Measured ΔTm at 10 µM by item
# TEST_TARGET: ZmDRIK1-K217-P492 (Zea mays, UniProt C0P4K9)
# Construct: kinase domain, K217-P492
# Sequence (C0P4K9 1-514): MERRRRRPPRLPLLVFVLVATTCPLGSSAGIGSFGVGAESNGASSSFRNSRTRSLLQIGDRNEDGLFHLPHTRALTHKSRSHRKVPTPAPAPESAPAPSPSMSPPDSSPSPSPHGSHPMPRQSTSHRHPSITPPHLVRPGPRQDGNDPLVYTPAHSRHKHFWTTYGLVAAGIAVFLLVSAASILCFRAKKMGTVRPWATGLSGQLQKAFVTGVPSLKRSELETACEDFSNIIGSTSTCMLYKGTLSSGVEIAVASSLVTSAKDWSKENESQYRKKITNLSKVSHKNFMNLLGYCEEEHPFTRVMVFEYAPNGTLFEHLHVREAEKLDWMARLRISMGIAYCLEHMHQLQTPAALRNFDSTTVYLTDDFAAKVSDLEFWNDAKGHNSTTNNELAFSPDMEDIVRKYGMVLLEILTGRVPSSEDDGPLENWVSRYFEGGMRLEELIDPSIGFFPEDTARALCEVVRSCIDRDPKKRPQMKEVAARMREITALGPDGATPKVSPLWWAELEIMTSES
# ASSAY_PROTOCOL: biochemical
# CONDITION_SET: read-out: dTm B, sheet ZmDRIK1-K217-P492;; DSF, Boltzmann fit, 0.1% DMSO
Structures can show the parent of a compound that is named as a salt.
Please reply with the bare figure in °C and do not write the unit itself.

// worked examples, ΔTm at 10 µM included
COMPOUND: C[C@@H](N)[C@H]1CC[C@H](C(=O)Nc2ccncc2)CC1 [Y-27632 2HCl]
ΔTm at 10 µM (°C): -1.25
//
COMPOUND: COc1cc2ncnc(Nc3ccc(F)c(Cl)c3)c2cc1NC(=O)/C=C/CN1CCCCC1
ΔTm at 10 µM (°C): -0.0919
//
COMPOUND: COc1ncc(-c2ccc3nccc(-c4ccnnc4)c3c2)cc1NS(=O)(=O)c1ccc(F)cc1F
ΔTm at 10 µM (°C): -1.03
//
COMPOUND: CNc1nc(Nc2cnn([C@H]3CCN(C4COC4)C[C@@H]3F)c2Cl)ncc1C(F)(F)F
ΔTm at 10 µM (°C): -0.685
//
COMPOUND: FC(F)(F)c1ccc(/C=C/c2nc(COc3ccc(CCCCn4ccnn4)cc3)co2)cc1
ΔTm at 10 µM (°C): -0.803
//
COMPOUND: CN1CCCN(C(=O)c2cccc(-c3ccc(/C=C4/C(=O)Nc5ccc(Cl)cc54)o3)c2)CC1 [CX-6258 HCl]
ΔTm at 10 µM (°C): -1.21
//
COMPOUND: O=c1c(-c2ccc(O)cc2)coc2cc(O)cc(O)c12
ΔTm at 10 µM (°C): -18.8

Could you now consider this next compound?
Hey, ZmDRIK1-K217-P492 (Zea mays, UniProt C0P4K9) data for `CC(C)NC[C@@H](C(=O)N1CCN(c2ncnc3c2[C@H](C)C[C@H]3O)CC1)c1ccc(Cl)cc1` : ΔTm at 10 µM came out at -1.1

Where do the numbers come from? From paper PMC7158045.
